measurement.target: Fyn (UniProt P06241)
Sequence (P06241 whole entry, looked up): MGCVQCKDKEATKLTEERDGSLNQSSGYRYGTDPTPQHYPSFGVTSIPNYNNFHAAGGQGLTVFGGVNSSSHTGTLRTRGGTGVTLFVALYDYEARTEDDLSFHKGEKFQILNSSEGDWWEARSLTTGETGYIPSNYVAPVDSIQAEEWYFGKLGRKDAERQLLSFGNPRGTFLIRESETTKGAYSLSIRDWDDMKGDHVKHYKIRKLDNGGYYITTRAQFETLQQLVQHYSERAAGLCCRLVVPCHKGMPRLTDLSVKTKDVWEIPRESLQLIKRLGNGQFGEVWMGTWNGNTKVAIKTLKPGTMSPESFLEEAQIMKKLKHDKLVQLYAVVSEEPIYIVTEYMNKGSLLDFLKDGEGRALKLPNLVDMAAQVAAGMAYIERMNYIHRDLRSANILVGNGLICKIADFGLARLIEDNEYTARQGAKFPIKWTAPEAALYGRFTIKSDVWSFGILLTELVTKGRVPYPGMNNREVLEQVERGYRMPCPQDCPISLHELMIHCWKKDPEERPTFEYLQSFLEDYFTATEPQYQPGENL
test.details: phosphorylation enrichment, bacterial display (enrichment ratio); higher = better substrate or ligand; peptides without Tyr show the background;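 note: 11-residue human phosphosite peptides and single-mutation variants displayed on the E. coli surface, counted by deep sequencing, each peptide's frequency after selection divided by its frequency in the unselected input library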;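 note: frequency after pTyr selection over input frequency; kinase dosed for 20-30% of maximal phosphorylation in three min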
// classify(record): look up phosphorylation enrichment in ranges b0 = under 0.4, b1 = from 0.4 up to 0.6, b2 = 0.6 and over

EREFKYDAHNF [OAT_Y50_G51D_YF] : b0
QLDQRYLLVPE [DDX49_Y223] : b1
GRDQPYSGTGD [TYRO3_Y828_A831T] : b1
RNIQQCNSFVS [PRKAR1A_Y373_Y373C] : b1
VIDGKYAFKPK [GTF2E2_Y137] : b0

Consider YLRTGYSVPYG [TGM1_Y370] . To which phosphorylation enrichment class does it belong?
b1

Let us now turn to PEEKVYLSRGD [CRACR2A_Y141_H136P]
b2

Next sequence: TLSGIYQFNIA [FOXL2_Y81_I84N_YF]
b2

Attribution: the supplement of paper PMC10065799
